- subject-of-test: Platelet-derived growth factor receptor alpha (Homo sapiens) (UniProt P16234)
- Sequence (P16234 whole entry): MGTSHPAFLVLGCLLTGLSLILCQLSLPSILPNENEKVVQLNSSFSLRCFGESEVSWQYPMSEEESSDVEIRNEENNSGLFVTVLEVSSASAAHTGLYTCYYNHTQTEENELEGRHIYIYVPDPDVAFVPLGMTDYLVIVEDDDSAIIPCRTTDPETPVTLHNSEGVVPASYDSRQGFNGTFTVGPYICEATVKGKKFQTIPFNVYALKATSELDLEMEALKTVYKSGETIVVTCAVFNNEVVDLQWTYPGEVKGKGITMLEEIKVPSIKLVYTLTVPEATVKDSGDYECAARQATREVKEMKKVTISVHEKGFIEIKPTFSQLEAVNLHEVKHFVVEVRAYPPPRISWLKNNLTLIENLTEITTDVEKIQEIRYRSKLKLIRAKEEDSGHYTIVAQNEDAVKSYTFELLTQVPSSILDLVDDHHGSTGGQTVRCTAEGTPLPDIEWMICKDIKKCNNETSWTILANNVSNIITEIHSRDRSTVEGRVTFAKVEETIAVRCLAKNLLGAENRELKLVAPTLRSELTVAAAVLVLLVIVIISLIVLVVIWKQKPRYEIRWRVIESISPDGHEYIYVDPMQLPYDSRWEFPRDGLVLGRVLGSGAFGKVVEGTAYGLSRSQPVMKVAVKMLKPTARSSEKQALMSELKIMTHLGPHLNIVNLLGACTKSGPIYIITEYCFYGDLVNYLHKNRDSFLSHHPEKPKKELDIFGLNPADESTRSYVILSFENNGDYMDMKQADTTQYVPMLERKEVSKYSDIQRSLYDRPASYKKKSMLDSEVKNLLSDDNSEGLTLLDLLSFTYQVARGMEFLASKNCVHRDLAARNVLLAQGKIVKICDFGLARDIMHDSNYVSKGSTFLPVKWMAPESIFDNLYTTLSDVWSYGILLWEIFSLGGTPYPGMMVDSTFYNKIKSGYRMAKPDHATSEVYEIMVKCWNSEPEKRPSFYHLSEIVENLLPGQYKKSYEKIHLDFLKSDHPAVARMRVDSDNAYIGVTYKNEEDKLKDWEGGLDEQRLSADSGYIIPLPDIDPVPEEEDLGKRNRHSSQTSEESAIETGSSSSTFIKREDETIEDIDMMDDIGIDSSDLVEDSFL
- assay-explanation: Inhibition of PDGFRa (unknown origin) at 5.5 uM by Caliper Mobility Shift Assay
readout-type: inhibition

Challenge: Can you look up inhibition on Platelet-derived growth factor receptor alpha (Homo sapiens) (UniProt P16234) for CC(=O)Nc1cc(-c2c(-c3ccc(F)cc3)nc(S/C=C\C(=O)O)n2C2CCCCC2)ccn1 ?
Response given: < 50%

Challenge: Can you look up inhibition on Platelet-derived growth factor receptor alpha (Homo sapiens) (UniProt P16234) for CC(=O)Nc1cc(-c2c(-c3ccc(F)cc3)nc(S/C=C\C(=O)O)n2C2CC2)ccn1 ?
Response given: < 50%

Challenge: Can you look up inhibition on Platelet-derived growth factor receptor alpha (Homo sapiens) (UniProt P16234) for CC(=O)Nc1cc(-c2c(-c3ccc(F)cc3)nc(Sc3cccc(I)n3)n2C2CCCCC2)ccn1 ?
Response given: < 50%

Challenge: Can you look up inhibition on Platelet-derived growth factor receptor alpha (Homo sapiens) (UniProt P16234) for CC(=O)Nc1cc(-c2c(-c3ccc(F)cc3)nc(S/C=C\C(=O)O)n2CC2CCCO2)ccn1 (racemic) ?
Response given: < 50%

Challenge: Can you look up inhibition on Platelet-derived growth factor receptor alpha (Homo sapiens) (UniProt P16234) for COC(Cn1c(SC2CCC(C(=O)O)CC2O)nc(-c2ccc(F)cc2)c1-c1ccnc(NC(C)=O)c1)OC (stereo not given) ?
Response given: < 50%

* * *

- assay-explanation: Metabolic stability in human liver microsomes assessed as compound remaining after 240 mins by LC-MS/MS analysis
- Assay type: ADME
- run-parameters: read-out: Stability
readout-type: remaining at 4 h
Don't forget the unit after the number, please.

Challenge: What value of remaining at 4 h has been recorded for this entry: CCC(C)Nc1cc(-c2c(-c3ccc(F)cc3)nc(S/C=C\C(=O)O)n2CC(OC)OC)ccn1 (configuration not stated)
Response given: 56%

Challenge: What value of remaining at 4 h has been recorded for this entry: CC(=O)Nc1cc(-c2c(-c3ccc(F)cc3)nc(S/C=C\C(=O)O)n2CC2CC2)ccn1
Response given: 70%

* * *

- subject-of-test: Mitogen-activated protein kinase 10 (Homo sapiens, UniProt P53779)
- Sequence (P53779 whole entry): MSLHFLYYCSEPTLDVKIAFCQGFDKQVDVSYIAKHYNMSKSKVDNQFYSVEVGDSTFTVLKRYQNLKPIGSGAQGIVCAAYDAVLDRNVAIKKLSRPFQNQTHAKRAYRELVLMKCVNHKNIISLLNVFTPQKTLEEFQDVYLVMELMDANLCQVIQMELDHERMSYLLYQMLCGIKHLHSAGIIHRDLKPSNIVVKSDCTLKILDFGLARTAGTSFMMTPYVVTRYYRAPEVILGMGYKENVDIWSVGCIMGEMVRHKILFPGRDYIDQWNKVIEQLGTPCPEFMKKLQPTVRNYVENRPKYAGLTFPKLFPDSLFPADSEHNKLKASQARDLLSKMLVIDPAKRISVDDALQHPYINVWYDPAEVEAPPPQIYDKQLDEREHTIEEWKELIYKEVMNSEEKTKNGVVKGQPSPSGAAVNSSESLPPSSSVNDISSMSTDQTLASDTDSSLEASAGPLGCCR
- assay-explanation: Inhibition of JNK3 (unknown origin) assessed as phosphorylation of ATF-2 by ELISA
Provide the reported pIC50 of each item.
By convention, pIC50 is the negative base-10 log of a molar concentration.

Challenge: What value of pIC50 has been recorded for this entry: CCOC(=O)/C=C/Sc1nc(-c2ccc(F)cc2)c(-c2ccnc(NC(C)=O)c2)n1C1CC1
Response given: 6.17

Challenge: What value of pIC50 has been recorded for this entry: CC(=O)Nc1cc(-c2c(-c3ccc(F)cc3)nc(SCCC(=O)O)n2C)ccn1
Response given: 7.04

Challenge: What value of pIC50 has been recorded for this entry: CC(=O)Nc1cc(-c2c(-c3ccc(F)cc3)nc(SCC(=O)O)n2C)ccn1
Response given: 6.58

Challenge: What value of pIC50 has been recorded for this entry: O=C(O)/C=C/Sc1nc(-c2ccc(F)cc2)c(-c2ccnc(Nc3ccccc3)c2)n1CC1CC1
Response given: 6.67

Challenge: What value of pIC50 has been recorded for this entry: CC(=O)Nc1cc(-c2c(-c3ccc(F)cc3)nc(S/C=C\C(=O)O)n2CC(O)CO)ccn1 (centres undefined)
Response given: 6.65

Challenge: What value of pIC50 has been recorded for this entry: CCNC(=O)N1CCC(Nc2cc(-c3c(-c4ccc(F)cc4)nc(S/C=C\C(=O)O)n3C)ccn2)CC1
Response given: 7.21

Challenge: What value of pIC50 has been recorded for this entry: CCC(C)Nc1cc(-c2c(-c3ccc(F)cc3)nc(S/C=C\C(=O)O)n2CC(OC)OC)ccn1 (centres undefined)
Response given: 7.59

Challenge: What value of pIC50 has been recorded for this entry: O=C(O)/C=C\Sc1nc(-c2ccc(F)cc2)c(-c2ccnc(Nc3ccccc3)c2)n1CC1CC1
Response given: 7.27

Challenge: What value of pIC50 has been recorded for this entry: CC(=O)Nc1cc(-c2c(-c3ccc(F)cc3)nc(S/C=C\C(=O)O)n2C)ccn1
Response given: 7.26

Challenge: What value of pIC50 has been recorded for this entry: CCOC(=O)/C=C/Sc1nc(-c2ccc(F)cc2)c(-c2ccnc(NC(C)=O)c2)n1CC1CC1
Response given: 5.92

Challenge: What value of pIC50 has been recorded for this entry: CC(=O)Nc1cc(-c2c(-c3ccc(F)cc3)nc(SCC(=O)N(C)C)n2C)ccn1
Response given: 5.93

Challenge: What value of pIC50 has been recorded for this entry: COC(Cn1c(SCC#N)nc(-c2ccc(F)cc2)c1-c1ccnc(F)c1)OC
Response given: 5.37

Challenge: What value of pIC50 has been recorded for this entry: CC(=O)Nc1cc(-c2c(-c3ccc(F)cc3)nc(S/C=C\C(=O)O)n2C2CCC2)ccn1
Response given: 7.33

Challenge: What value of pIC50 has been recorded for this entry: CC(=O)Nc1cc(-c2c(-c3ccc(F)cc3)nc(S/C=C\C(=O)O)n2CC2CCCCC2)ccn1
Response given: 7.60

Challenge: What value of pIC50 has been recorded for this entry: CC(=O)Nc1cc(-c2c(-c3ccc(F)cc3)nc(SC3CCC(C(=O)O)CC3O)n2CC2CCCO2)ccn1 (racemic)
Response given: 5.58

Challenge: What value of pIC50 has been recorded for this entry: CC(=O)Nc1cc(-c2c(-c3ccc(F)cc3)nc(SC3CCC(C(=O)O)CC3O)n2C2CCCCC2)ccn1 (centres undefined)
Response given: 7.10

Challenge: What value of pIC50 has been recorded for this entry: CCOC(=O)/C=C\Sc1nc(-c2ccc(F)cc2)c(-c2ccnc(Nc3ccccc3)c2)[nH]1
Response given: 7.10

Challenge: What value of pIC50 has been recorded for this entry: CC(=O)Nc1cc(-c2c(-c3ccc(F)cc3)nc(S/C=C\C(=O)O)n2CC2CCCO2)ccn1 (racemic)
Response given: 7.46

Challenge: What value of pIC50 has been recorded for this entry: CC(=O)Nc1cc(-c2c(-c3ccc(F)cc3)nc(SC3CCC(C(=O)O)CC3O)n2C)ccn1 (centres undefined)
Response given: 6.74

Challenge: What value of pIC50 has been recorded for this entry: CC(=O)CSc1nc(-c2ccc(F)cc2)c(-c2ccnc(NC(C)=O)c2)n1C
Response given: 6.59

Challenge: What value of pIC50 has been recorded for this entry: CC(=O)Nc1cc(-c2c(-c3ccc(F)cc3)nc(S/C=C\C(=O)O)n2C2CCCCC2)ccn1
Response given: 6.88

Challenge: What value of pIC50 has been recorded for this entry: CC(=O)Nc1cc(-c2c(-c3ccc(F)cc3)nc(S/C=C/C(=O)O)n2CC2CC2)ccn1
Response given: 6.77

Challenge: What value of pIC50 has been recorded for this entry: COC(Cn1c(S/C=C\C(=O)O)nc(-c2ccc(F)cc2)c1-c1ccnc(NC(C)=O)c1)OC
Response given: 7.48

Challenge: What value of pIC50 has been recorded for this entry: CCOC(=O)/C=C/Sc1nc(-c2ccc(F)cc2)c(-c2ccnc(NC(C)=O)c2)n1CC(OC)OC
Response given: 5.66

Challenge: What value of pIC50 has been recorded for this entry: CC(=O)Nc1cc(-c2c(-c3ccc(F)cc3)nc(S/C=C\C(=O)O)n2C2CCCC2)ccn1
Response given: 7.35

Challenge: What value of pIC50 has been recorded for this entry: CC(=O)Nc1cc(-c2c(-c3ccc(F)cc3)nc(S/C=C\C(=O)O)n2CC2CC2)ccn1
Response given: 7.74

Challenge: What value of pIC50 has been recorded for this entry: O=C(O)/C=C\Sc1nc(-c2ccc(F)cc2)c(-c2ccnc(Nc3ccccc3)c2)[nH]1
Response given: 7.77

Challenge: What value of pIC50 has been recorded for this entry: CC(=O)Nc1cc(-c2c(-c3ccc(F)cc3)nc(S/C=C\C(=O)O)n2C2CC2)ccn1
Response given: 7.09

Challenge: What value of pIC50 has been recorded for this entry: CC(=O)Nc1cc(-c2c(-c3ccc(F)cc3)nc(Sc3cccc(I)n3)n2C2CCCCC2)ccn1
Response given: 5.82

Challenge: What value of pIC50 has been recorded for this entry: COC(Cn1c(SC2CCC(C(=O)O)CC2O)nc(-c2ccc(F)cc2)c1-c1ccnc(NC(C)=O)c1)OC (centres undefined)
Response given: 5.70

Challenge: What value of pIC50 has been recorded for this entry: COC(Cn1c(SCC#N)nc(-c2ccc(F)cc2)c1-c1ccnc(NC2CC2)c1)OC
Response given: 7.10

Challenge: What value of pIC50 has been recorded for this entry: COC(Cn1c(S/C=C\C(=O)O)nc(-c2ccc(F)cc2)c1-c1ccnc(NC2CC2)c1)OC
Response given: 7.92

Challenge: What value of pIC50 has been recorded for this entry: COC(Cn1c(SCCC(=O)O)nc(-c2ccc(F)cc2)c1-c1ccnc(NC(C)=O)c1)OC
Response given: 6.57

Challenge: What value of pIC50 has been recorded for this entry: COC(=O)CSc1nc(-c2ccc(F)cc2)c(-c2ccnc(NC(C)=O)c2)n1C
Response given: 6.70
